- Test system: SNB-19 CNS
- measurement.protocol: NCI tumour cell line growth inhibition, 48 h
# Lookup of reported TGI keyed by entry

COc1cc(/C=C2\C[C@H]3[C@@H]4CC=C5C[C@@H](N6CCCC6)CC[C@]5(C)[C@H]4CC[C@]3(C)[C@H]2O)cc(OC)c1OC	35.8 µM
CC1(CCCC2(C)CCNC2=O)OCCO1 (stereo unspecified)	> 10 µM
Cc1cn(C2CC(O)C(CO)C2C)c(=O)[nH]c1=O (stereo unspecified)	> 100 µM
Cc1ccc(S(=O)(=O)NC(=O)NC(Cc2c[nH]c3ccccc23)C(=O)O)cc1 (stereo unspecified)	> 100 µM
CCN1CCN(C(=O)[C@]23CC[C@@H](C)[C@H](C)[C@@H]2C2=CC[C@@H]4[C@@]5(C)C/C(=C/c6cccnc6)C(=O)C(C)(C)[C@@H]5CC[C@@]4(C)[C@]2(C)CC3)CC1	3.74 µM

Would you kindly look at the next entry?
Quick note, TGI for COC(=O)C(=O)C(C#N)c1cccc2ccccc12 (stereo unspecified) landed at > 100 µM

====

- Test system: MCF7 breast
- measurement.protocol: NCI tumour cell line growth inhibition, 48 h; in the data active = GI50 below about 0.43 µM; inactive = the rest
Pick one: class 1 = active, class 0 = inactive

These recorded examples may help you get a feel for the data.
COc1ccc(CCNc2nc3ccccc3c3[nH]c4ccccc4c23)cc1OC	class 0
C(=N\Nc1ncc(-c2cc3cc4c(cc3o2)OCO4)s1)/c1c[nH]c2ccccc12	class 0
CCN1CCN(C(=O)[C@]23CC[C@@H](C)[C@H](C)[C@@H]2C2=CC[C@@H]4[C@@]5(C)C/C(=C/c6cccnc6)C(=O)C(C)(C)[C@@H]5CC[C@@]4(C)[C@]2(C)CC3)CC1	class 0
FC(F)(F)c1ccc2nc(-c3nc(-c4ccccc4)n4ccccc34)[nH]c2c1	class 0

Which result was noted for this compound in the test: COc1ccc(CN2CCc3c(Cl)nc(N)nc3C2=O)c(OC)c1 class 0

Which result was noted for this compound in the test: O=P(O)(O)OC1C(OP(=O)(O)O)C(OP(=O)(O)O)C(OP(=O)(O)O)C(OP(=O)(O)O)C1OP(=O)(O)O (configuration not stated) class 0

Which result was noted for this compound in the test: COc1ccc(C(=O)/C=C/c2ccc(Cl)cc2)cc1S(N)(=O)=O class 0

Which result was noted for this compound in the test: COc1ccc([C@H]2c3cc(OC)c(OC)cc3C=C(C=O)C2CO)cc1OC (some centres not stated) class 0

Which result was noted for this compound in the test: CC(=O)O[C@@H]1C=CC(=O)C2(CC(=O)O[C@@H]2/C=C(\C)CCC=C(C)C)C1 (some centres not stated) class 1

Which result was noted for this compound in the test: CCc1cc(C(N)=O)ccc1-n1nc(C(C)C)c2c(-n3cnc(-c4cnn(C)c4)c3)ccnc21 class 0

Which result was noted for this compound in the test: Cc1cc(Cl)n2c(nc3ccccc32)c1C#N class 1

Which result was noted for this compound in the test: Cc1ccc(CCC(=O)Nc2ncc(Cc3cc(Cl)ccc3Cl)s2)o1 class 1

====

- System: SNB-19 CNS
- measurement.protocol: NCI tumour cell line growth inhibition, 48 h
measured.parameter: TGI

COc1ccc(CN(O)C2C(CO)OC(n3cc(I)c(=O)[nH]c3=O)C2O)cc1 (stereo unspecified)	> 100 µM

Quick note, TGI for O=C(Cn1ccnc1[N+](=O)[O-])NCCO landed at > 100 µM

Quick note, TGI for O=C(CCCCCCc1nc2ccc(Br)cc2[nH]1)NO landed at > 30 µM

Quick note, TGI for O=C(c1ccccc1)c1nnn(Cc2cccc(Cl)c2)c1C(=O)c1ccccc1 landed at > 100 µM

Quick note, TGI for C[N+](C)(C)CC(=O)N/N=C(/C=C/c1ccccc1)CC1OC(=O)c2ccccc21 (stereo unspecified) landed at > 100 µM

Quick note, TGI for COc1cc[c]([Hg][Cl])cc1 landed at 16.6 µM

====

- Test system: UACC-62 melanoma
- measurement.protocol: NCI tumour cell line growth inhibition, 48 h
# Lookup of reported TGI keyed by entry
API: value field is a number in µM; no unit string.

FC(F)(F)c1ccc2nc(-c3nc(-c4ccccc4)n4ccccc34)[nH]c2c1	17.9
COC(=O)C1=C(C)N2CCCOC2(C)C(C(=O)OC)C1c1cccc(Cl)c1 (stereo unspecified)	36.5
CCOC(=O)c1cnc2ccc(Cl)cc2c1NCCCN(C)C	32.8

Would you kindly look at the next entry?
Quick note, TGI for COc1ccc(/C=C2/SC(=Nc3c(C)nn(-c4ccccc4)c3N)NC2=O)cc1 landed at 18.3

====

- Test system: SK-MEL-5 melanoma
- measurement.protocol: NCI tumour cell line growth inhibition, 48 h
# Lookup of reported TGI keyed by entry
API: value field is a number in µM; no unit string.

Cc1cc(Cl)n2c(nc3ccccc32)c1C#N	3.45
CCN1CCN(C(=O)[C@]23CC[C@@H](C)[C@H](C)[C@@H]2C2=CC[C@@H]4[C@@]5(C)C/C(=C/c6cccnc6)C(=O)C(C)(C)[C@@H]5CC[C@@]4(C)[C@]2(C)CC3)CC1	3.14
CC(C)(C)C#C[P+](c1ccccc1)(c1ccccc1)c1ccccc1	0.634

Quick note, TGI for CCOC(=O)c1cnc2ccc(Cl)cc2c1NCCCN(C)C landed at 30.4

Quick note, TGI for COc1ccc(C(=O)/C=C/c2ccc(Cl)cc2)cc1S(N)(=O)=O landed at 18

====

- Tested on: HCT-15 colon
- measurement.protocol: NCI tumour cell line growth inhibition, 48 h
measured.parameter: GI50

Please review the entries below; each comes with its answer.
C#Cc1cccc(NC(=O)Nc2ccccc2NC(=O)CCl)c1	15.1 µM
COC12C=C/C(=C(/C(=O)OCc3ccncn3)C(=O)CCCCCCCCC3(OC)C=C/C(=C(/C(=O)OCc4ccncn4)C(=O)CCCCCCCC1)O3)O2	0.278 µM

Quick note, GI50 for COc1ccc(NC(=O)c2ccc(NC3=C(Cl)C(=O)N(Cc4ccccc4)C3=O)cc2)cc1 landed at 4.04 µM

Quick note, GI50 for COc1ccc(CCNc2nc3ccccc3c3[nH]c4ccccc4c23)cc1OC landed at 2.86 µM

Quick note, GI50 for CC(C)Oc1cc(OCC(=O)O)cc(C(=O)N(CCC(N)=O)C(=O)Nc2ccc(C(=O)O)cc2OC(C)C)c1 landed at > 100 µM

====

- Tested on: COLO 205 colon
- measurement.protocol: NCI tumour cell line growth inhibition, 48 h; in the data active means GI50 below about 0.43 µM; inactive means the rest
Pick one: T (active), F (inactive)

COc1cc([C@@H]2c3cc4c(cc3[C@H](OC3OC5COC(c6ccccc6)OC5C(O)C3O)[C@H]3COC(=O)[C@H]23)OCO4)cc(OC)c1OC (some centres not stated)	T

Which result was noted for this compound in the test: C=C1C(=O)OC(CCCCCCCC)C1C(=O)O (configuration not stated) F

Which result was noted for this compound in the test: COc1ccc(C(=O)c2cc3c(N)c(C(=O)Nc4cccc(Cl)c4)sc3nc2C)cc1 F

Which result was noted for this compound in the test: COc1ccccc1/C=C1\COc2ccc(O)c(O)c2C1=O F

Which result was noted for this compound in the test: COc1ccc(CCNc2nc3ccccc3c3[nH]c4ccccc4c23)cc1OC F

====

- Test system: NCI-H460 lung
- measurement.protocol: NCI tumour cell line growth inhibition, 48 h
measured.parameter: TGI

Please review the entries below; each comes with its answer.
CCOP1(=O)OCC2OC(n3cnc4c(N)ncnc43)C(O)C2O1 (stereo unspecified)	> 100 µM
C=C1C(=O)O[C@@H]2[C@@H]3O[C@@](C)(CC/C=C(\C)CCC[C@@H]2C)[C@H](O)C[C@@H]13	31.6 µM
C=Nc1ccc([N+](=O)[O-])cc1	> 100 µM
CC1(C)C2CCC1(CS(=O)(=O)Nc1ccccc1)C(=O)C2 (stereo unspecified)	> 100 µM

Quick note, TGI for COC(c1ccsc1)C(C#N)(C#N)N=Cc1ccsc1 (stereo unspecified) landed at 45.4 µM

Quick note, TGI for CCCSc1cc(Cl)c(C)cc1S(=O)(=O)n1ccnc1OCCCN(C)C landed at > 100 µM

Quick note, TGI for COc1ccc(C(=O)O/N=C2\CCCC\C2=C/c2ccccc2)cc1 landed at > 100 µM

Quick note, TGI for O=C(CC1Sc2ccccc2NC1=O)Nc1cccc(Cl)c1 (stereo unspecified) landed at > 100 µM

Quick note, TGI for COc1cc([C@@H]2c3cc4c(cc3[C@H](OC3OC5COC(c6ccccc6)OC5C(O)C3O)[C@H]3COC(=O)[C@H]23)OCO4)cc(OC)c1OC (stereo partly specified) landed at 2.92 µM

Quick note, TGI for COc1cc2c(cc1OC)C1CN3C(=O)CCC3C(O)C1c1cc(OC)c(OC)cc1-2 (stereo unspecified) landed at > 100 µM

Quick note, TGI for Cc1c(C(=O)/C=C/c2ccco2)[n+](=O)c2ccccc2n1[O-] landed at > 100 µM

====

- Test system: MOLT-4 leukemia
- measurement.protocol: NCI tumour cell line growth inhibition, 48 h
# Lookup of reported TGI keyed by entry

COc1ccc(CN2CCc3c(Cl)nc(N)nc3C2=O)c(OC)c1	34.6 µM

TGI of Cn1ccnc1CCc1ccc(F)cc1F , assay on MOLT-4 leukemia, is > 100 µM

TGI of Cc1cc2c(-c3nc4ccccc4[nH]3)c(O)c(O)cc2c(O)c1-c1c(C)cc2c(-c3nc4ccccc4[nH]3)c(O)c(O)cc2c1O , assay on MOLT-4 leukemia, is > 50 µM

TGI of O=C1NN=C(c2ccc(Cl)cc2)CC1C1C(=O)N(c2ccccc2)N=C1c1ccccc1 (stereo not drawn) , assay on MOLT-4 leukemia, is > 100 µM

TGI of CCc1nc2ccccc2c(=O)n1/N=C(\N=Nc1ccc(Cl)cc1)c1ccc(N(C)C)cc1 , assay on MOLT-4 leukemia, is 92.2 µM

TGI of C=C1C(=O)O[C@@H]2[C@@H]3O[C@@](C)(CC/C=C(\C)CCC[C@@H]2C)[C@H](O)C[C@@H]13 , assay on MOLT-4 leukemia, is 7.64 µM

TGI of CC(=O)OCC1OC(n2cc(F)c(=O)[nH]c2=O)C(OC(C)=O)C1OC(C)=O (stereo not drawn) , assay on MOLT-4 leukemia, is > 77.7 µM

TGI of COc1ccc(NC(=O)c2ccc(NC3=C(Cl)C(=O)N(Cc4ccccc4)C3=O)cc2)cc1 , assay on MOLT-4 leukemia, is > 100 µM

TGI of COc1cc(-c2cc(-c3ccc(N(C)C)cc3)nc(N3CCC(O)CC3)c2C#N)cc(OC)c1OC , assay on MOLT-4 leukemia, is 10.7 µM

TGI of COc1c(-c2cc(C)c(Cl)c(=O)[nH]2)c(O)c(OC)c2occc12 , assay on MOLT-4 leukemia, is > 100 µM

TGI of Brc1ccc2c(-c3nc(-c4c[nH]c5ccccc45)cs3)c[nH]c2c1 , assay on MOLT-4 leukemia, is > 87 µM

TGI of CCCCC/C=C1/CC(CO)(COC(=O)CC(C(C)C)C(C)C)OC1=O (stereo not drawn) , assay on MOLT-4 leukemia, is 26.2 µM

TGI of Cc1cc(S(=O)(=O)Nc2nc3ccsc3c(=O)n2N)c(S)cc1Cl , assay on MOLT-4 leukemia, is > 100 µM

TGI of Oc1ccc2c(c1)-c1c(c3cc(O)ccc3n1CCN1CCOCC1)CC2 , assay on MOLT-4 leukemia, is 60.4 µM

TGI of O=C(CCc1cccc(O)c1)NCCc1cccc(O)c1 , assay on MOLT-4 leukemia, is > 100 µM

TGI of COc1ccc(C(=O)O/N=C2\CCCC\C2=C/c2ccccc2)cc1 , assay on MOLT-4 leukemia, is > 100 µM

TGI of C=CCNC1=C2C[C@@H](C)C[C@@H](OC)C(OC(=O)CCCN(C)C)[C@H](C)/C=C(\C)[C@@H](OC(N)=O)[C@H](OC)/C=C\C=C(/C)C(=O)NC(=CC1=O)C2=O (stereo partly drawn) , assay on MOLT-4 leukemia, is 39.1 µM

TGI of C[C@]12CC[C@H]3[C@@H](CCC4=CC(=O)C=C[C@@]43O)[C@@H]1CCC2=O , assay on MOLT-4 leukemia, is > 100 µM

Data provenance: PubChem BioAssay (NCI)
